Assay: NCI Yeast Anticancer Drug Screen. Data for the cln2 rad14 strain (AID 165);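 note: 0% = growth equal to vehicle treated cultures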
Conditions: S. cerevisiae cln2 rad14 strain, at 5.0 µM (retest, dose inferred, filed as 0.5), active compounds read high
The panel holds about 79,000 compounds, 15% with a hit somewhere; the sample as a whole holds those more often.
Measured growth inhibition accompanies every entry in the list below.
Note: unit % is implicit; provide only the numeric part.

Solved cases below.
OC1CCC(COC(c2ccccc2)(c2ccccc2)c2ccccc2)O1 (configuration not stated)	5
CC[N+](CC)(CC)Cc1ccc(C[N+](CC)(CC)CC)cc1	4
COc1cccc(NC(=S)NC2CC(C)CC(C)(C)C2)c1 (configuration not stated)	30
CCCC(=O)NCCNC(=O)CCC	-50
O=C(O)c1ccccc1SC(Sc1ccccc1C(=O)O)c1cccc(Cl)c1	-1

Q. Suppose we examine the compound "CNC(=O)OCC1=CC(=O)C(OC)=C(OC)C1=O" ; what growth inhibition value has been reported?
A. -6

Q. Query O=C(CC1CCCC(CC(=O)c2ccccc2)N1CCc1ccccc1)c1ccccc1 (configuration not stated) next
A. 27

Q. Query "O=[N+]([O-])/C=C/c1cc2c(ccc3ccccc32)[nH]1" next
A. 37

Q. Query "O=C(CC(=O)c1ccccc1)CC(=O)c1ccccc1Cl" next
A. -5

Q. Query "S=c1[nH]c2ccc(Br)cc2c(=S)n1-c1ccccc1" next
A. -1

----------
Test: NCI Yeast Anticancer Drug Screen. Data for the rad50 strain (AID 155);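 note: 0% = growth of vehicle-only cultures of the same strain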
Details: S. cerevisiae rad50 strain growth inhibition; at 50.0 µM
Compounds without any hit were thinned out: in the full panel of roughly 79,000, 15% have a hit. Calls of active or inactive are those of the source. No stated cut-off is given here; in the data, active means growth inhibition above about 70%; inactive means the rest.
Assign a class; possible classes are true for active, false for inactive

For orientation, consider the following solved cases.
CC(=O)NCCN(C)C	true
CN(Cc1cnc2nc(N[Si](C)(C)C)nc(N[Si](C)(C)C)c2n1)c1ccc(C(=O)NC(CCC(=O)O[Si](C)(C)C)C(=O)O[Si](C)(C)C)cc1 (configuration not stated)	true
OC1CN(C2CCCCC2)CC1C1(O)CCN(C2CCCCC2)C1 (configuration not stated)	false

Q. What was the test verdict on COc1ccc2sc3c(C)ccc(NCC4CCCN5CCCCC45)c3c(=O)c2c1 (configuration not stated) ?
A. true

Q. Query "Cc1ccc(O)c(C(c2ccc([N+](=O)[O-])cc2)c2cc(C)ccc2O)c1" next
A. true

Q. Query CC(O)C(O)C(O)C(O)C(O)C(=O)O (configuration not stated) next
A. false

----------
Measured growth inhibition accompanies every entry in the list below.
Assay: NCI Yeast Anticancer Drug Screen. Data for the cln2 rad14 strain (AID 165);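 note: 0% = growth equal to vehicle treated cultures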
Settings: S. cerevisiae cln2 rad14 strain, at 50.0 µM, active compounds read high
About 79,000 compounds went through this panel and 15% of them were active in at least one assay; those are over-represented in the sample as a whole.
Note: unit % is implicit; provide only the numeric part.

Q. Suppose we examine the molecule "NC(=O)NNC(=O)NNC(N)=O" ; what growth inhibition value has been reported?
A. 70.8

Q. Query "O=C1SC(c2ccccc2)=S=C1c1ccccc1" next
A. 24.6

Q. Query COc1ccc(C(c2cc3c(cc2O)OCO3)N2CCCC2)c(OC)c1 (stereo not drawn) next
A. 61.2

Q. Query "COc1ccccc1NC(=O)/C(=C\N1C(=O)/C(=C/c2cc(OC)c(OC)c(OC)c2)SC1=S)C(C)=O" next
A. 8.6

----------
Test: NCI Yeast Anticancer Drug Screen. Data for the bub3 strain (AID 167)
Conditions: S. cerevisiae bub3 mutant strain, at 5.0 µM (retest, dose inferred, filed as 0.5)
Description: Growth inhibition of yeast strains with defined genetic alterations is measured as a screen for potential anti-cancer activity. Selected strains with alterations in DNA damage repair or cell cycle control were exposed to compounds and growth inhibition was measured relative to vehicle treated controls. The strain used in this assay is bub3
The panel holds about 79,000 compounds, 15% with a hit somewhere; the sample as a whole holds those more often. Calls of active or inactive are those of the source. Rule as the data show it: active = growth inhibition above about 70%; inactive = the rest.
Assign a class; possible classes are true (1) = active, false (0) = inactive

For orientation, consider the following solved cases.
CCOc1ccccc1C(=O)Oc1cccc(C)c1	false (0)
Cc1ccc(S(=O)/C=C/S(=O)(=O)c2ccc(C)cc2)cc1 (stereo not given)	true (1)

Q. What was the test verdict on "C[n+]1c(/C=C/c2cccc([N+](=O)[O-])c2)sc2ccccc21" ?
A. false (0)

Q. Query "Cn1c(=O)c2c3oc(=O)cc(O)c3c(=O)n3c4ccccc4n(c1=O)c23" next
A. false (0)

Q. Query "OC(CC(CC(O)(C(F)(F)Cl)C(F)(F)Cl)=NNc1ccccc1)(C(F)(F)Cl)C(F)(F)Cl" next
A. false (0)

----------
Experiment: NCI Yeast Anticancer Drug Screen. Data for the mlh1 rad18 strain (AID 175)
Conditions: S. cerevisiae mlh1 rad18 strain growth inhibition; at 50.0 µM (retest, dose inferred, filed as 5.0)
Compounds without any hit were thinned out: in the full panel of roughly 79,000, 15% have a hit. Active and inactive are the calls of the source. No stated cut-off is given here; in the data, active means growth inhibition above about 70%; inactive means the rest.
Assign a class; possible classes are yes (1) for active, no (0) for inactive

For orientation, consider the following solved cases.
O=C1c2ccccc2C(=O)c2cc(O)ccc21	yes (1)
Cc1cc(C=Nc2ccccc2)c(O)c2ncccc12	yes (1)
O=C1c2ccc(O)c(O)c2C(=O)c2c(O)ccc(O)c21	yes (1)
COc1ccc2oc(-c3ccc(OC)c(OC)c3OC)cc(=O)c2c1	no (0)
O=C(/C(O)=C(\O)C(=O)N(C1CCCCC1)C1CCCCC1)N(C1CCCCC1)C1CCCCC1	yes (1)
CC(C)C[C@H](NC(=O)[C@H](Cc1ccccc1)NC(=O)c1cnccn1)B(O)O	yes (1)
CC1=CC(=O)CC(c2ccccc2)C1 (stereo unspecified)	yes (1)
CCC(c1ccccc1)N1C(=O)c2ccccc2S1(=O)=O (stereo unspecified)	no (0)
CN(C)CC(=O)OCC[N+](C)(C)C	no (0)
CSC(=S)n1nc(-c2cccs2)c(N=Nc2ccccc2)c1C(F)(F)F	yes (1)

--- query ---
Q. What was the test verdict on "COc1ccc(C2N(Cc3ccc(Cl)cc3)CCN2Cc2ccc(Cl)cc2)cc1" ?
A. yes (1)

----------
Test: NCI Yeast Anticancer Drug Screen. Data for the sgs1 mgt1 strain (AID 161);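 note: 0% = growth of cultures given vehicle only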
Details: S. cerevisiae sgs1 mgt1 strain, at 5.0 µM (retest, dose inferred, filed as 0.5), active compounds read high
The panel holds about 79,000 compounds, 15% with a hit somewhere; the sample as a whole holds those more often.
Measured growth inhibition accompanies every entry in the list below.
Note: unit % is implicit; provide only the numeric part.

Solved cases below.
O=[N+]([O-])c1cc2ccc(O)cc2c2ccccc12	10
CC(C)(C)OC(=O)N(CCCCNC(=O)OCc1ccccc1)CCCNC(=O)OCc1ccccc1	-19
CC[C@@H](C(=O)[C@@H](C)[C@@H](O)[C@H](C)CCc1ccc(C)c(O)c1C(=O)O)[C@H]1O[C@](CC)([C@H]2CC[C@](O)(CC)[C@H](C)O2)C[C@@H]1C	38

Q. Suppose we examine the molecule "Cc1ccc2nc(C[n+]3cccc4ccccc43)ccc2c1" ; what growth inhibition value has been reported?
A. 88

Q. Query "COc1ccc(C=O)cc1C[P+](c1ccccc1)(c1ccccc1)c1ccccc1" next
A. 51

Q. Query "O=C1Nc2ccc([N+](=O)[O-])c3c([N+](=O)[O-])ccc1c23" next
A. 3

Q. Query CN(C)C1CCC2C3CC=C4CC(OC=O)CCC4(C)C3CCC21C (stereo not given) next
A. 2

Q. Query "O=C1C(=C2C(=O)c3ccccc3[N+]2=O)N([O-])c2ccccc21" next
A. -3

Q. Query "C1=CN2C(c3ccccc3)=NN(c3ccccc3)[C@@H]2c2ccccc21" next
A. -3

Q. Query "O=C1CCS(=O)(=O)c2ccccc21" next
A. 24

----------
Experiment: NCI Yeast Anticancer Drug Screen. Data for the cln2 rad14 strain (AID 165);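 note: 0% = growth equal to vehicle treated cultures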
Details: S. cerevisiae cln2 rad14 strain, at 5.0 µM (retest, dose inferred, filed as 0.5)
The panel holds about 79,000 compounds, 15% with a hit somewhere; the sample as a whole holds those more often. The source made the active and inactive calls. No stated cut-off is given here; in the data, active means growth inhibition above about 70%; inactive means the rest.
Assign a class; possible classes are true for active, false for inactive

For orientation, consider the following solved cases.
CC1(C)CC[C@]2(C(=O)O)[C@H](O)C[C@]3(C)C(=CC[C@@H]4[C@@]5(C)CC[C@H](OC6OCC(O)C(O)C6OC6OCC(O)C(O)C6OC6OCC(O)C(O)C6O)C(C)(C)[C@@H]5CC[C@]43C)[C@@H]2C1 (some centres undefined)	false
O=C1c2cc(O)ccc2C(=O)c2c1ccc(O)c2O	false
O=C1C(Cl)=C(Nc2ccc(S(=O)(=O)O)cc2)C(=O)c2ccccc21	false

--- query ---
Q. What was the test verdict on "Cc1ccc(O)c(C(c2ccc([N+](=O)[O-])cc2)c2cc(C)ccc2O)c1" ?
A. true

----------
Assay: NCI Yeast Anticancer Drug Screen. Data for the cln2 rad14 strain (AID 165);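 note: 0% = growth equal to vehicle treated cultures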
Settings: S. cerevisiae cln2 rad14 strain, at 5.0 µM (retest, dose inferred, filed as 0.5), active compounds read high
The panel holds about 79,000 compounds, 15% with a hit somewhere; the sample as a whole holds those more often.
Measured growth inhibition accompanies every entry in the list below.
Note: unit % is implicit; provide only the numeric part.

Solved cases below.
CCCCCC1OC1CC1OC1CCCCCCCC(=O)OC (stereo not given)	-4
Cc1ccc(C2SCC(=O)N2c2ccc(-n3c(-c4ccccc4)nc4ccccc4c3=O)cc2)cc1 (stereo not given)	-16
CC[N+]1(C)CCC(O)(c2ccc(Cl)c(Cl)c2)C(C(=O)c2ccc(Cl)c(Cl)c2)C1 (stereo not given)	6
C1=Nc2ccccc2C=Nc2ccccc2C=Nc2ccccc2C=Nc2ccccc21.[Cl-].[Pt+2]	25
O=C1NC(=O)C(c2ccccc2)(c2ccccc2)C2CC3c4[nH]c5ccccc5c4CCN3CC12 (stereo not given)	6

Q. Suppose we examine the compound O=C(O)C(O)Cc1ccc(O)cc1 (stereo not given) ; what growth inhibition value has been reported?
A. -62

Q. Query CC(=O)N[C@H]1CCC2[C@@H]3CCC4=CC(=O)NCC[C@]4(C)C3CC[C@@]21C (stereo not given in full) next
A. -4

Q. Query "ONC(=Nc1cccc2ccccc12)C(=Nc1cccc2ccccc12)NO" next
A. -16

Q. Query "Cc1c2ccccc2c(=O)n2c(-c3ccccn3)cccc12" next
A. 8

Q. Query CCCCCNc1ccc2c(cc1=O)C(NC(C)=O)CCc1cc(OC)c(OC)c(OC)c1-2 (stereo not given) next
A. 16
